- Tested on: SNB-75 CNS
- test-details: NCI tumour cell line growth inhibition, 48 h
metric: TGI (µM)
Value expressed in µM; do not type the unit.

Below: 2 compounds and their reported TGI.
Problem: Please give the measured TGI for this compound: `C[C@@H](Oc1ccc2[nH]nc(/C=C/c3cnn(CCO)c3)c2c1)c1c(Cl)cncc1Cl`
Solution: 0.561

Problem: Then what about the compound NC(=S)N1N=C(c2ccccc2O)CC1c1ccccc1 (centres undefined) ?
Solution: 52.9

Further cases:
Problem: Tell me the measured TGI of O=C(O)c1cc(O)c2c(c1)C([C@@H]1c3cccc(O)c3C(=O)c3c(O)cc(C(=O)O)cc31)c1cccc(O)c1C2=O (some centres undefined) , please.
Solution: 62.6

Problem: Now consider `Cc1cccc2c1O/C(=C\c1ccc([N+](=O)[O-])o1)C2=O` and answer again.
Solution: 5.8

Problem: // repeat for `COc1cc(-c2cc(/C=C3\C(=O)Nc4ccccc43)[nH]n2)cc(OC)c1OC` and report
Solution: 10

Problem: What would you report for COc1ccc(CC(NC(=O)[C@H](C)NC(=O)CN2CCOCC2)C(=O)N[C@@H](Cc2ccccc2)C(=O)[C@@]2(C)CO2)cc1 (some centres undefined) ?
Solution: 0.427
